Molecular target: Retinoic acid receptor RXR-alpha (Homo sapiens) (UniProt P19793)
Sequence (P19793 whole entry, looked up): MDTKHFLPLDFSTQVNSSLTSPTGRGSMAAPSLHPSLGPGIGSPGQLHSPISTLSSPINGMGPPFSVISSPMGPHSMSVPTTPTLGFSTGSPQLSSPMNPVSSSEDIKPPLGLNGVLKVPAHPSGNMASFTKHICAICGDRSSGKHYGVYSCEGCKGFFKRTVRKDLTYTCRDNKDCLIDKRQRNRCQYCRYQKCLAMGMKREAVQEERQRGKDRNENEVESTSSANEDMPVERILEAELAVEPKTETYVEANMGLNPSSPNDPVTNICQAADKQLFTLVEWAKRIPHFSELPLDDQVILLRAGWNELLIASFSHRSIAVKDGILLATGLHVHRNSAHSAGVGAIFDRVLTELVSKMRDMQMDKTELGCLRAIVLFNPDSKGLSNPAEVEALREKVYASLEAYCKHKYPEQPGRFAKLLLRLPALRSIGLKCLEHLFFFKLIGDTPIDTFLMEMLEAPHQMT
Assay: qHTS assay to identify small molecule agonists of the RXR signaling pathway (AID 1159527); further: on the % scale 0 is the no-effect control and ±100 the full control effect; nearly all actives have a fitted effect of over 35% in size
Conditions: HEK293T RXRa-UAS-bla, beta-lactamase ratio, 16 h; series mostly up to 76.8 µM
From the text: U.S. Tox21 Program National Center for Advancing Translational Sciences [NCATS] NIH Chemical Genomics Center [NCGC] U.S. Environmental Protection Agency [EPA] National Institutes of Environmental Health Sciences [NIEHS] National Toxicology Program [NTP] U.S. Food and Drug Administration [FDA] Tox21 Assay Overview: The Retinoid X receptor (RXR), a nuclear hormone receptor expressed in liver, spleen, placenta, epidermis, central nervous system. […]
Records with an inconclusive call do not appear. Calls of active or inactive are those of the source. The call rests on the fitted dose curve.
MEASUREMENT_LABEL: outcome

Record excerpt, results attached:
COMPOUND	outcome
CC(C)(C)NC[C@H](O)c1ccc(O)cc1Cl	inactive
CCC(C(N)=O)N1CCCC1=O (stereo not drawn)	inactive
CCC(C)C(C)(COC(N)=O)COC(N)=O (stereo not drawn)	inactive
CC(C)(C)C(=O)C(Cl)Cl	inactive
C#CC(C)(C)O	inactive
CC(C)C(C)(N)C#N (stereo not drawn)	inactive

Query CCC1(CC)C(=O)C=CNC1=O on Retinoic acid receptor RXR-alpha (Homo sapiens) (UniProt P19793); outcome returned: inactive

Value sought: outcome, system Retinoic acid receptor RXR-alpha (Homo sapiens) (UniProt P19793), item O=C(Cl)C(Cl)(Cl)Cl . Result: inactive

====

Molecular target: Estrogen receptor (Homo sapiens) (UniProt P03372)
Sequence (P03372 whole entry, looked up): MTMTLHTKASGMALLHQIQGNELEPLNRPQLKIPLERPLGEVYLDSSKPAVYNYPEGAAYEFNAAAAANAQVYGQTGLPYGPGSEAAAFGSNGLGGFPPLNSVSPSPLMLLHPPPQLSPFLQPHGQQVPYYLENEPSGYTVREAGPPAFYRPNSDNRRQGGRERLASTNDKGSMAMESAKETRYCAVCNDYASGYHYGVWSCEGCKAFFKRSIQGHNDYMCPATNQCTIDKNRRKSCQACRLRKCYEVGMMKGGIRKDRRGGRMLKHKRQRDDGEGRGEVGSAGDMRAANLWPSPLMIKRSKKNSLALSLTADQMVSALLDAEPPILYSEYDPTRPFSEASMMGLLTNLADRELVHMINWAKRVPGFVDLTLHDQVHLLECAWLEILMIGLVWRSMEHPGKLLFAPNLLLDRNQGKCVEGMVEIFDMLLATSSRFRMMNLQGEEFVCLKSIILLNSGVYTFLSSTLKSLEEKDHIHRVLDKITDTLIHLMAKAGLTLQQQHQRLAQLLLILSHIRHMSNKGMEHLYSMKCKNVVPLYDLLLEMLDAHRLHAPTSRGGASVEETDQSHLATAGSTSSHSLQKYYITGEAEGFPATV
Assay: qHTS assay to identify small molecule antagonists of the estrogen receptor alpha (ER-alpha) signaling pathway (AID 743069); further: on the % scale 0 is the no-effect control and ±100 the full control effect
Conditions: HEK293 ER-alpha-UAS-bla, beta-lactamase ratio, antagonist mode; series mostly up to 69.4 µM
Results filed as inconclusive are left out. Activity calls are given as the source filed them. Calls come from the whole dose curve; as a rule, active = well fitted curve in the direction sought with a large enough effect in the signal ratio in the repeat runs (not every such curve was filed as active); inconclusive = weak or mixed curves, or effect the other way; inactive = no such curve, though single readings can be large or run the other way; the % refers to the signal ratio.
MEASUREMENT_LABEL: outcome

COMPOUND	TESTED_ON	outcome
[O-][Br+2]([O-])O	Estrogen receptor (Homo sapiens) (UniProt P03372)	inactive
COC(=O)c1ccccc1CS(=O)(=O)NC(=O)Nc1nc(OC)cc(OC)n1	Estrogen receptor (Homo sapiens) (UniProt P03372)	inactive
O=C(O)c1c(Cl)ccc2cc(Cl)cnc12	Estrogen receptor (Homo sapiens) (UniProt P03372)	inactive
CCC1(c2ccccc2)CCC(=O)NC1=O (stereo not given)	Estrogen receptor (Homo sapiens) (UniProt P03372)	inactive
CN(C)C(=O)Oc1cc(OC(=O)N(C)C)cc(C(O)CNC(C)(C)C)c1 (stereo not given)	Estrogen receptor (Homo sapiens) (UniProt P03372)	inactive
BrCc1ccc(Br)cc1	Estrogen receptor (Homo sapiens) (UniProt P03372)	inactive
CCCCCCCC(=O)Cl	Estrogen receptor (Homo sapiens) (UniProt P03372)	inactive
CC(=O)CN(CC(C)=O)N=O	Estrogen receptor (Homo sapiens) (UniProt P03372)	inactive
CCOC(=O)C(Cl)Cc1cc(-n2nc(C)n(C(F)F)c2=O)c(F)cc1Cl (stereo not given)	Estrogen receptor (Homo sapiens) (UniProt P03372)	inactive
COP(=O)(O)OC	Estrogen receptor (Homo sapiens) (UniProt P03372)	inactive

Noted for S=C=S : its outcome reads inactive

Per the record, N#CN=C1SCCN1Cc1ccc(Cl)nc1 has outcome of inactive

# outcome of CN(C)CCc1c[nH]c2cccc(OP(=O)(O)O)c12 = inactive

Lookup result for CCCCOC(C)=O ; measured outcome: inactive

Form: compound = C/C=C/CC#N ; outcome = inactive

====

Molecular target: Glucocorticoid receptor (Homo sapiens) (UniProt P04150)
Sequence (P04150 whole entry, looked up): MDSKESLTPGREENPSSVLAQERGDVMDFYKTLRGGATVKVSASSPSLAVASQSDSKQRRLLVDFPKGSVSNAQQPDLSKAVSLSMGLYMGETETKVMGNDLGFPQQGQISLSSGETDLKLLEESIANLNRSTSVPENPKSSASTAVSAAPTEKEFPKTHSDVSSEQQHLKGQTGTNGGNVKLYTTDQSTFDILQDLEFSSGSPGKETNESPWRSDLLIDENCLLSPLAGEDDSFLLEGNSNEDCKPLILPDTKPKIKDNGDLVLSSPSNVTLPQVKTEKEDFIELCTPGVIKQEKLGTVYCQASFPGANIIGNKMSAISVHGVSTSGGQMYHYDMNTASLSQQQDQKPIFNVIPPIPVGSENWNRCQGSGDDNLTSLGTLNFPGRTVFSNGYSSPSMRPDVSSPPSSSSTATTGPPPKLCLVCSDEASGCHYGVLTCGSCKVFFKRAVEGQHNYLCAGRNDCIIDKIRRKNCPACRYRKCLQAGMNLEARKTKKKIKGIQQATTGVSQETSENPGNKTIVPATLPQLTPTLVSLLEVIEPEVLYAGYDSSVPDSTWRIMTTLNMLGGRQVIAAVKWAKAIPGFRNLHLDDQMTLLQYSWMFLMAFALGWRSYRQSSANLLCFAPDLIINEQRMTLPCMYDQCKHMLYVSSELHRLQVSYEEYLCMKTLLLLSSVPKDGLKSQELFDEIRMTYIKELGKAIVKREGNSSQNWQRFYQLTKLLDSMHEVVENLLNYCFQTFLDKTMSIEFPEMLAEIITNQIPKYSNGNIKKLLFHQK
Assay: qHTS assay to identify small molecule agonists of the glucocorticoid receptor (GR) signaling pathway (AID 720691); on activation: on the % scale 0 is the no-effect control and ±100 the full control effect
Conditions: GR-bla HeLa, beta-lactamase reporter ratio, 18 h; series mostly up to 62.4 µM
Results filed as inconclusive are left out. Calls of active or inactive are those of the source. Calls come from the whole dose curve; as a rule, active = well fitted activation curve with a large enough effect in the signal ratio in the repeat runs (not every such curve was filed as active); inconclusive = weak or mixed curves, or effect the other way; inactive = no such curve, though single readings can be large or run the other way; the % refers to the signal ratio.
A correct response names exactly one class from active, inactive

COMPOUND	ASSIGNED_CATEGORY
OCC(Cl)CCl (stereo unspecified)	inactive
CCN[C@@H](C)Cc1ccccc1	inactive
CON(C)C(=O)Nc1ccc(Br)c(Cl)c1	inactive
CCNP(=S)(OC)O/C(C)=C/C(=O)OC(C)C (stereo unspecified)	inactive
O=C(NC(O)C(Cl)(Cl)Cl)NC(O)C(Cl)(Cl)Cl (stereo unspecified)	inactive
NC(=O)OCCCc1ccccc1	inactive

Identify the outcome logged in this assay for the compound shown: CCOC(=O)N(C)N=O
inactive

Called result for CN(C)CCN(C)C
inactive

What did the test return for Cc1ccc(-c2nc3ccc(C)cn3c2CC(=O)N(C)C)cc1 ?
active

Which outcome did this test record for the compound C=CC=O ?
inactive

Each compound tested received a call. Report the one for O=c1[nH]c2ccccc2o1 .
inactive

// return assay outcome for C=CCN1CC[C@]23CCCC[C@H]2[C@H]1Cc1ccc(O)cc13
inactive

How did this test come out for CCSC(=O)Cl ?
inactive

Could you please tell me the result logged for O=C1CCCCC1Cl (stereo unspecified) in this assay?
inactive

Test call, this compound: CC(C)C(C)(N)C#N (stereo unspecified)
inactive

Per the records of this test, what outcome belongs to CCC(=O)c1ccc(Cl)cc1 ?
inactive

====

Molecular target: Peroxisome proliferator-activated receptor gamma (Homo sapiens) (UniProt P37231)
Sequence (P37231 whole entry, looked up): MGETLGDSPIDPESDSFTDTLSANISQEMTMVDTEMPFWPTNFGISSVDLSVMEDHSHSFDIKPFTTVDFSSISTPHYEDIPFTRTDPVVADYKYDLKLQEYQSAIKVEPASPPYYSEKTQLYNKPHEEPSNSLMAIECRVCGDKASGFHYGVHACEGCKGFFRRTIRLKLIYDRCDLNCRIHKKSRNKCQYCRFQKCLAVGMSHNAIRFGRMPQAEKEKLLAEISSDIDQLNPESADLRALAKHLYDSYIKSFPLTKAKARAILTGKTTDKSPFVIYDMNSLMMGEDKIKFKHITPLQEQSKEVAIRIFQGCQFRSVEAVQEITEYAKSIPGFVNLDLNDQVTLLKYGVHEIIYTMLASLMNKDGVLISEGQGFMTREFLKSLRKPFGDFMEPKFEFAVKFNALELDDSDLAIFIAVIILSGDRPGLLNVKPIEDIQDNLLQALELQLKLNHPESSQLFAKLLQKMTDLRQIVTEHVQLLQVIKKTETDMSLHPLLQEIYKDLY
Test: qHTS assay to identify small molecule antagonists of the peroxisome proliferator-activated receptor gamma (PPARg) signaling pathway (AID 743191); further: on the % scale 0 is the no-effect control and ±100 the full control effect; nearly all actives have a fitted effect of over 30% in size
Conditions: HEK293H PPARg-UAS-bla, beta-lactamase ratio, antagonist, 17 h; series mostly up to 62.6 µM
Records with an inconclusive call do not appear. The source made the active and inactive calls. The call rests on the fitted dose curve.
MEASUREMENT_LABEL: ratio activity, negative = inhibition

ITEM_SMILES	RESULT_VALUE
Cc1ccc2cc(C)ccc2c1	inactive
[P]#[In]	inactive
O=c1[nH]c2ccccc2n1C1CCNCC1	inactive

====

Target: Acetylcholinesterase (Homo sapiens) (UniProt P22303)
Sequence (P22303 whole entry, looked up): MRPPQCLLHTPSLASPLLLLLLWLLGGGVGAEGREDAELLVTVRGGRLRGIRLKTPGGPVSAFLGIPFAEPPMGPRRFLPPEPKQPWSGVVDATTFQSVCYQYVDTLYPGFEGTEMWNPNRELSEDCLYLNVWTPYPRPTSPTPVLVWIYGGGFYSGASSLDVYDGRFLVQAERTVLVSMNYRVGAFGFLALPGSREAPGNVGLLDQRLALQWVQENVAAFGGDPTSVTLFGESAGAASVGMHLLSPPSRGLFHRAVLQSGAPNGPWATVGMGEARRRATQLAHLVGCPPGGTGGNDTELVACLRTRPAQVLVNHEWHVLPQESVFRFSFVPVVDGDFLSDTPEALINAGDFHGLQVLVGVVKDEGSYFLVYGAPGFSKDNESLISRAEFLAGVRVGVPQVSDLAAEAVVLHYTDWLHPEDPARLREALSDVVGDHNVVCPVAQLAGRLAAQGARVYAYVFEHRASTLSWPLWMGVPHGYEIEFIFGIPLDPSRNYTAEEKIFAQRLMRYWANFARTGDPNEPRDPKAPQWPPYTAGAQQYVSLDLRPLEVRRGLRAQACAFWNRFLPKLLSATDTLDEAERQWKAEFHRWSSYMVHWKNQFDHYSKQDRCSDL
Assay: Acetylcholinesterase (AChE) small molecule antagonists: colormetric cell-based qHTS assay (AID 1347395); further: nearly all actives have a fitted effect of over 30% in size
Conditions: SH-SY5Y cells AChE activity, colorimetric (Ellman); series mostly up to 115 µM
Inconclusive results are not listed. Active and inactive are the calls of the source. The call rests on the fitted dose curve.
Write down the outcome that applies. Available outcomes: active, inactive

Worked examples follow.
ITEM_SMILES	TESTED_ON	ASSIGNED_CATEGORY
CN=CNc1ccc(C)cc1C	Acetylcholinesterase (Homo sapiens) (UniProt P22303)	inactive
CC[C@H](N)c1ccccc1	Acetylcholinesterase (Homo sapiens) (UniProt P22303)	inactive
N#CN=C1SCCN1Cc1ccc(Cl)nc1	Acetylcholinesterase (Homo sapiens) (UniProt P22303)	active
C=C1CC[C@@]2(O)[C@H]3Cc4ccc(O)c5c4[C@@]2(CCN3CC2CC2)[C@H]1O5	Acetylcholinesterase (Homo sapiens) (UniProt P22303)	inactive
ClCCCCl	Acetylcholinesterase (Homo sapiens) (UniProt P22303)	inactive
CCOC(=O)Nc1cccc(OC(=O)Nc2ccccc2)c1	Acetylcholinesterase (Homo sapiens) (UniProt P22303)	inactive
Oc1ccc(Cc2ccc(O)cc2)cc1	Acetylcholinesterase (Homo sapiens) (UniProt P22303)	inactive
CCNc1nc(Cl)nc(NC(C)(C)C)n1	Acetylcholinesterase (Homo sapiens) (UniProt P22303)	inactive

Could you kindly confirm the outcome this assay logged for COC(=O)c1ccc(CBr)cc1 ?
inactive

Tell me the assay call for CC(Cl)(Cl)Cl please.
inactive

// return assay outcome for c1ccc2c(c1)CCNC2
inactive

What call does the record list for Cc1cc(OC(=O)N(C)C)nn1C(=O)N(C)C ?
active

State the result this test recorded for CS(=O)(=O)c1ccc(C(=O)C2C(=O)CCCC2=O)c(Cl)c1COCC(F)(F)F .
active

Outcome logged for CCN(CC)CCOC(=O)C(O)(c1ccccc1)c1ccccc1 in this assay:
inactive

Outcome? CCCCS(=O)(=O)Cl
inactive

====

The compounds listed here are annotated with their max response.
Experiment: qHTS RealTime-Glo MT Cell Viability Assay in HEK293 cells - 40 hour (AID 1224874); further: on the % scale 0 is the no-effect control and ±100 the full control effect; nearly all actives have a fitted effect of over 50% in size
Details: RealTime-Glo luminescence; stronger effect = lower value
Results filed as inconclusive are left out.
Write the answer as a number in %, unit excluded.

COMPOUND	max response / %
[O-][Br+2]([O-])O	3
CCCC(C)C1(CC)C(=O)N=C(S)NC1=O (stereo not given)	1.79
COC[C@@H](NC(C)=O)C(=O)NCc1ccccc1	5.22
OP(O)c1ccccc1	9.39
CS(=O)(=O)Cl	-0.619

# max response (compound: C[N+]1(C)CCCCC1 ) is 19.2

The reported max response of the compound C#CCOC(=O)/C=C(C)/C=C/CC(C)CCCC(C)C (stereo not given) was 17.6

# max response (compound: N#CN ) is 4.8

Item: CN1COCN(Cc2cnc(Cl)s2)/C1=N\[N+](=O)[O-] | max response: 7.06

max response reported for this compound CCC1(c2ccccc2)CCC(=O)NC1=O (stereo not given) : -2.24

Lab book: max response of CCOC(=O)c1ncn2c1CN(C)C(=O)c1c(I)cccc1-2 noted as 1.2

// max response lookup, compound = CN(C)CCN(C)C , result: 7.83

Recorded result, CCOP(=O)(CN(CCO)CCO)OCC , max response: 1.2

# max response (compound: O=S1(=O)OCCO1 ) is 4.27

Reported max response for Cc1ccc2c(c1)C1CN(C)CCC1N2 (stereo not given) was 2.17
